measured.on: Regulator of G-protein signaling 16 (Homo sapiens) (UniProt O15492)
Sequence (O15492 whole entry, looked up): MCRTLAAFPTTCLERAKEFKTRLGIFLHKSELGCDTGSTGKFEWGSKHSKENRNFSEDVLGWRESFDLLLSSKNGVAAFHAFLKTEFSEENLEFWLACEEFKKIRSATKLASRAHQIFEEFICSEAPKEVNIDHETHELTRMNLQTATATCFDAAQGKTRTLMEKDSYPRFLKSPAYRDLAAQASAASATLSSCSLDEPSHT
run.description: RGS16-Galphao interaction modulators, dose response, biochemical, bead-based flow cytometry, multiplex (AID 1888)
stated.conditions: RGS16-Galphao binding, measured here: Ki for RGS16-Galphao binding
compounds and their reported Ki
Report as a plain number; the unit nM is understood.

[in] For the compound shown here, CC1(C)OC(=O)C(=Cc2ccc(-c3ccc(S(N)(=O)=O)cc3)o2)C(=O)O1 , give the reported Ki.
[out] 9640

[in] Would you kindly share the measured Ki for CCOc1ccccc1-c1c2cc(O)c(=O)cc-2oc2cc(O)c(O)cc12 ?
[out] 11400

[in] Requested read-out: Ki. Entry: O=c1c2ccccc2sn1-c1cc(S(=O)(=O)N2CCOCC2)ccc1N1CCCC1
[out] 1830

[in] Please give the measured Ki for this compound: O=C(OCC1O[C@@H](OC(=O)c2cc(O)c(O)c(O)c2)[C@@H](OC(=O)c2cc(O)c(O)c(O)c2)[C@@H](OC(=O)c2cc(O)c(O)c(O)c2)[C@@H]1OC(=O)c1cc(O)c(O)c(O)c1)c1cc(O)c(O)c(O)c1 (stereo partly drawn)
[out] 4680

[in] Need Ki, item NS(=O)(=O)c1ccc(N/N=C/c2ccc(O)c(O)c2O)c([N+](=O)[O-])c1
[out] 1350

[in] State the recorded Ki for this entry: Cc1[nH]n(-c2ccccc2)c(=S)c1C=Nc1cccc([N+](=O)[O-])c1
[out] 1290

[in] # get_value(readout='Ki', item= CCN1/C(=C/C(C)=C/c2sc3ccccc3[n+]2CC)Sc2ccccc21 )
[out] 7850

[in] Look up Ki for this compound: Cc1cc(C)c2c(=O)n(CC(=O)Nc3ccc(Cl)cc3)sc2n1
[out] 1420

[in] Find the recorded Ki belonging to CCCNC(=O)Cn1sc2nc(C)cc(C)c2c1=O and report it.
[out] 1420

[in] Which value of Ki has been reported for CN(C)[C@@H]1C(=O)C(C(=O)NCN2CCCC2)=C(O)[C@@]2(O)C(=O)C3=C(O)c4c(O)cccc4[C@@](C)(O)C3CC12 (stereo partly drawn) in the records?
[out] 5930

[in] Consider the compound shown here: Nc1c(C(=O)NCC2CCCO2)sc2nc3c(c(-c4ccco4)c12)CC/C3=C\c1ccco1 (stereo not drawn) What is its recorded Ki?
[out] 2210

[in] Name the recorded Ki for CN=c1scc(C)n1/N=C/c1ccc(O)c(O)c1O .
[out] 7140

[in] What value of Ki has been reported for the following compound? CCC(=O)NC1=C(Cl)C(=O)C(NC(=O)CC)=C(Cl)C1=O
[out] 680
